test-target: Autotaxin (Homo sapiens)
assay-method-text: Noncompetitive inhibition of autotaxin-mediated pNP-TMP hydrolysis by Michaelis-Menten analysis
experimental-readout: Ki (µM)
Please reply with the bare figure in µM and do not write the unit itself.

Notebook: pull reported Ki for Autotaxin (Homo sapiens), entry CCn1cc(C(=O)O)c(=O)c2cnc(N3CCN(C(=S)Nc4cc(Cl)cc(Cl)c4)CC3)nc21
6.5

----------
Here the recorded Ki is given for each entry.
test-target: Autotaxin (Homo sapiens, UniProt Q13822)
assay-method-text: Competitive-type inhibition of autotaxin-mediated FS3 hydrolysis by Michaelis-Menten analysis
Could you kindly put the unit after your number?

* O=C(O)c1ccc(CN2C(=O)c3ccc(C(=O)c4ccc5c(c4)C(=O)N(Cc4ccc(C(=O)O)cc4)C5=O)cc3C2=O)cc1 | 5 µM

Continue with the next molecule.
Give its Ki value. Item: CCn1cc(C(=O)O)c(=O)c2cnc(N3CCN(C(=S)Nc4cc(Cl)cc(Cl)c4)CC3)nc21
1.9 µM

----------
Here we list compounds with their recorded pKi when tested on Autotaxin (Homo sapiens, UniProt Q13822).
Remember the convention: pKi equals -log10 of concentration in molar.

- O=C(O)c1cccc(NC(=O)c2ccc3c(c2)C(=O)N(c2ccc(/N=N/c4ccccc4)cc2)C3=O)c1: 4.39

Continue with the next compound.
Notebook: pull reported pKi for Autotaxin (Homo sapiens, UniProt Q13822), entry O=C(O)c1ccc(Oc2ccc(C(=O)c3ccc4c(c3)C(=O)N(c3cccc5ccccc35)C4=O)cc2)cc1
4.49

----------
Here we list molecules with their recorded pKi when tested on Autotaxin (Homo sapiens, UniProt Q13822).
Remember the convention: pKi equals -log10 of concentration in molar.

- O=C(O)c1ccc(Oc2ccc(C(=O)c3ccc4c(c3)C(=O)N(c3cccc5ccccc35)C4=O)cc2)cc1: 5.24

Notebook: pull reported pKi for Autotaxin (Homo sapiens, UniProt Q13822), entry O=C(O)c1cccc(NC(=O)c2ccc3c(c2)C(=O)N(c2ccc(/N=N/c4ccccc4)cc2)C3=O)c1
4.82

----------
test-target: Autotaxin (Homo sapiens, UniProt Q13822)
experimental-readout: pIC50
Remember the convention: pIC50 equals -log10 of concentration in molar.

Solved cases (2 shown):
* O=C(O)c1ccc(Oc2ccc(C(=O)c3ccc4c(c3)C(=O)N(c3cccc5ccccc35)C4=O)cc2)cc1 | 5.17
* O=C(O)c1ccc(CN2C(=O)c3ccc(C(=O)c4ccc5c(c4)C(=O)N(Cc4ccc(C(=O)O)cc4)C5=O)cc3C2=O)cc1 | 4.89

Continue with the next compound.
Notebook: pull reported pIC50 for Autotaxin (Homo sapiens, UniProt Q13822), entry O=C(O)c1cccc(NC(=O)c2ccc3c(c2)C(=O)N(c2ccc(/N=N/c4ccccc4)cc2)C3=O)c1
4.89

----------
test-target: Autotaxin (Homo sapiens, UniProt Q13822)
assay-method-text: Noncompetitive inhibition of autotaxin-mediated pNP-TMP hydrolysis by Michaelis-Menten analysis for enzyme-substrate complex
experimental-readout: Ki (µM)
Please reply with the bare figure in µM and do not write the unit itself.

Give its Ki value. Item: CCn1cc(C(=O)O)c(=O)c2cnc(N3CCN(C(=S)Nc4cc(Cl)cc(Cl)c4)CC3)nc21
6.5
